targetOrSystem: Endothelial lipase (EL) (Homo sapiens (Human))
Sequence (Q9Y5X9 21-500): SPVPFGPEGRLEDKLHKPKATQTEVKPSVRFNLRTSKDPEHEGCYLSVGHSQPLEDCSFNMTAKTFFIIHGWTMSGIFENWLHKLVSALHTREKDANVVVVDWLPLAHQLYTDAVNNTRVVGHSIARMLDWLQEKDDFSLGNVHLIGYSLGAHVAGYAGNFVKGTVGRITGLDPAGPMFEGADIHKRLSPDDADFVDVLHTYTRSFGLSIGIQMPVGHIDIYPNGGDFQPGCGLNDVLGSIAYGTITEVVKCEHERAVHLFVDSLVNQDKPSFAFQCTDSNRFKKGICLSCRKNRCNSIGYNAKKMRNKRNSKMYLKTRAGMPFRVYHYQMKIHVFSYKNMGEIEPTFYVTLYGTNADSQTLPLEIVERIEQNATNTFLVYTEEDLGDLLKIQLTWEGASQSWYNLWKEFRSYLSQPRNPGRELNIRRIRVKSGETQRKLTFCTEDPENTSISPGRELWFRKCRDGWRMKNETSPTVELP
assayMethodText: Endothelial lipase (EL) enzymatic assay with fluorescent substrate A10070 in DMPG vesicles
Assay type: biochemical
valueType: IC50 (nM)

Answered examples (2):
- compound: "COCCS(=O)(=O)C(C(=O)NCC(=O)NC1CC1)c1nc2cc(F)c(-c3cnc(OC)c(N)c3)cc2s1 (stereo not shown) [Example 140]"
  valueType: "IC50"
  obsValue: 12
- compound: "COCCS(=O)(=O)C(C(=O)NCC(=O)NC1CC1)c1nc2cc(Cl)c(-c3cncnc3)cc2s1 (stereo not shown) [Example 112]"
  valueType: "IC50"
  obsValue: 97

[1] CCOc1ccc(-c2ccc3nc(C(C(=O)NCC(=O)NC4CC4)S(=O)(=O)CCOC)sc3c2)cn1 (stereo not shown) [Example 299]
[2] COC(=O)Nc1ccc(-c2cc3sc(C(C(=O)NCC(=O)NC4CC4)S(C)(=O)=O)nc3cc2OC(F)F)cc1 (stereo not shown) [Example 607]
Parameter metric = IC50. Return the lower-valued option from 1 and 2 . Write down the label of the entry you select.
2
